Just for reference, ChEMBL document CHEMBL1909046 is where these values come from.

tested_system: Mitogen-activated protein kinase 1 (Homo sapiens, UniProt P28482)
Sequence (P28482 whole entry): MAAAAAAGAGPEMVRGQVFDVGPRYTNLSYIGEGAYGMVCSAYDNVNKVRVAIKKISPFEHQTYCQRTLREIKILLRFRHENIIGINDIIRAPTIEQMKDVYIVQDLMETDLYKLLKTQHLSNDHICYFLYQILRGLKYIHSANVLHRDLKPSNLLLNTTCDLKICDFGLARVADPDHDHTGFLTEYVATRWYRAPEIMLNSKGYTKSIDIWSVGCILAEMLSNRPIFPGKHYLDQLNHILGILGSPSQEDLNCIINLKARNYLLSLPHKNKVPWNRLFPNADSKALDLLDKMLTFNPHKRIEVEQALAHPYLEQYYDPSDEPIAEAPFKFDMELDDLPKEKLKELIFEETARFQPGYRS
assay_method_text: DRUGMATRIX: Protein Serine/Threonine Kinase, ERK2 enzyme inhibition (substrate: Myelin Basic Protein)
Set-up: species or system Escherichia coli
particulars: Not Active = under 50% inhibition at 10 µM; read-out: IC50
measurement_label: IC50 (nM)
Give bare numbers, in nM.

smiles_str	unit_abbrev	IC50
O=C(Nc1ccc(Br)cc1)c1cc(Br)cc(Br)c1O	nM	623

Below: the item to evaluate.
Provide only the value of recorded IC50 for Oc1c(Cl)cc(Cl)c(Cl)c1Cc1c(O)c(Cl)cc(Cl)c1Cl 196

====

tested_system: Adenosine receptor A3 (Homo sapiens, UniProt P0DMS8); further: in other assays of this panel Not Active means under 50% inhibition at 10 µM;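 further: radioligand binding assay with AB-MECA serving as the labeled ligand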
Sequence (P0DMS8 whole entry): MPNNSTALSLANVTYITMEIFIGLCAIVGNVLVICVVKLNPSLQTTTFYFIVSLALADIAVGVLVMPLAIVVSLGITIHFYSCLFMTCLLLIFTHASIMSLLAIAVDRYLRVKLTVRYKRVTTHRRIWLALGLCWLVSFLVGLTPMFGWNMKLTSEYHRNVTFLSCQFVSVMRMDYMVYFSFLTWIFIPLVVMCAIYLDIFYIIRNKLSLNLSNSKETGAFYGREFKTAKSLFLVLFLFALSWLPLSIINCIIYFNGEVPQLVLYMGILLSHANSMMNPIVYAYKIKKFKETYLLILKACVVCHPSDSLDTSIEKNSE
Assay type: cell membranes, CHO-K1, Membrane
particulars: cho-k1
measurement_label: IC50

Known IC50 results, listed for orientation:
compound	IC50
CCN(CC)CC(=O)Nc1c(C)cccc1C	Not Active
CC(C)c1cccc(C(C)C)c1O	Not Active
O=C(Nc1ccc(Br)cc1)c1cc(Br)cc(Br)c1O	Not Active
C[C@H]1C[C@@H]2[C@H]([C@@H](O)C[C@@]3(C)[C@H]2CC[C@]3(O)C(=O)CO)[C@@]2(C)C=CC(=O)C=C12	Not Active
CC1(C)S[C@@H]2[C@H](NC(=O)[C@H](N)c3ccccc3)C(=O)N2[C@H]1C(=O)O	Not Active
Brc1c(NC2=NCCN2)ccc2nccnc12	Not Active

Quick batch: IC50 for everything below.
1. C[n+]1ccccc1/C=N/O.[Cl-] [PRALIDOXIME CHLORIDE]
2. CCn1cc(C(=O)O)c(=O)c2cnc(N3CCCC3)nc21
3. CC(=O)O[C@H]1C(=O)[C@@]2(C)[C@H]([C@H](OC(=O)c3ccccc3)[C@]3(O)C[C@H](OC(=O)[C@H](O)[C@@H](NC(=O)c4ccccc4)c4ccccc4)C(C)=C1C3(C)C)[C@]1(OC(C)=O)CO[C@@H]1C[C@@H]2O

Not Active
Not Active
Not Active

====

assay_method_text: DRUGMATRIX: Imidazoline I2, Central radioligand binding (ligand: [3H] Idazoxan)
Format: cell membranes, Rattus norvegicus, Wistar, Cerebral cortex, Membrane
particulars: Not Active = under 50% inhibition at 10 µM
measurement_label: IC50

compound	IC50
O.O.O.O.O.O.[Cl-].[Cl-].[Sr+2] [STRONTIUM CHLORIDE HEXAHYDRATE]	Not Active
NC(=O)C[S+]([O-])C(c1ccccc1)c1ccccc1 (stereo unspecified) [MODAFINIL]	Not Active
CCCOc1ccc(C(=O)OCCN(CC)CC)cc1N [PROPARACAINE]	Not Active
C[C@]12C=CC(=O)C=C1CC[C@@H]1[C@@H]2[C@@H](O)C[C@@]2(C)[C@H]1CC[C@]2(O)C(=O)CO [PREDNISOLONE]	Not Active
Nc1ccn([C@@H]2O[C@H](CO)[C@@H](O)C2(F)F)c(=O)n1 [GEMCITABINE]	Not Active
C[C@H]1O[C@@H](n2cc(F)c(=O)[nH]c2=O)[C@H](O)[C@@H]1O [DOXIFLURIDINE]	Not Active
CN1[C@@H]2CC[C@H]1C[C@@H](OC(=O)C(CO)c1ccccc1)C2 (stereo partly specified) [ATROPINE]	Not Active
CCCN(CCC)S(=O)(=O)c1ccc(C(=O)O)cc1 [PROBENECID]	Not Active

Quick batch: IC50 for everything below.
1. CC(C)c1cccc(C(C)C)c1O [PROPOFOL]
2. N#Cc1ccc(C(c2ccc(C#N)cc2)n2cncn2)cc1 [LETROZOLE]
3. CCn1cc(C(=O)O)c(=O)c2cnc(N3CCCC3)nc21 [PIROMIDIC ACID]
4. Cn1c(=O)c2nc[nH]c2n(C)c1=O.O [THEOPHYLLINE]
5. O=C(Oc1ccccc1C(=O)O)c1ccccc1O [SALSALATE]
6. O=C1CN=C(c2ccccc2Cl)c2cc([N+](=O)[O-])ccc2N1 [CLONAZEPAM]
7. CCC1(C)CC(=O)NC1=O (stereo unspecified) [ETHOSUXIMIDE]
8. O=c1cc(N2CCOCC2)oc2c(-c3ccccc3)cccc12 [LY-294002]

1: Not Active; 2: Not Active; 3: Not Active; 4: Not Active; 5: Not Active; 6: Not Active; 7: Not Active; 8: Not Active

====

tested_system: Melanocortin receptor 4 (Homo sapiens); further: in other assays of this panel Not Active means under 50% inhibition at 10 µM
Sequence (P32245 whole entry): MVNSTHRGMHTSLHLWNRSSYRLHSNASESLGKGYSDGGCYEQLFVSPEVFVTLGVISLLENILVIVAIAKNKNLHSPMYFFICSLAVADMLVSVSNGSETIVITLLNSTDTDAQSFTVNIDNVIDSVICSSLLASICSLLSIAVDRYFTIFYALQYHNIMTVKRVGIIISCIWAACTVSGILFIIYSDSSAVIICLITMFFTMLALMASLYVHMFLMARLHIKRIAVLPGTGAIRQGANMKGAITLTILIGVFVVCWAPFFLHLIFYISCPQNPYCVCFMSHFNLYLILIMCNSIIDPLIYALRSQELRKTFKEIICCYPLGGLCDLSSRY
Format: cell membranes, HEK293, Membrane
particulars: read-out: IC50
measurement_label: pIC50
One number for each entry, as −log10 of the molar value.

Provide only the value of recorded pIC50 for Cc1c(C)c2c(c(C)c1O)CCC(C)(CN1CCN(c3cc(N4CCCC4)nc(N4CCCC4)n3)CC1)O2 (stereo unspecified) 4.24

====

tested_system: Voltage-gated inwardly rectifying potassium channel KCNH2 (Homo sapiens); further: in other assays of this panel Not Active means under 50% inhibition at 10 µM
Sequence (Q12809 whole entry): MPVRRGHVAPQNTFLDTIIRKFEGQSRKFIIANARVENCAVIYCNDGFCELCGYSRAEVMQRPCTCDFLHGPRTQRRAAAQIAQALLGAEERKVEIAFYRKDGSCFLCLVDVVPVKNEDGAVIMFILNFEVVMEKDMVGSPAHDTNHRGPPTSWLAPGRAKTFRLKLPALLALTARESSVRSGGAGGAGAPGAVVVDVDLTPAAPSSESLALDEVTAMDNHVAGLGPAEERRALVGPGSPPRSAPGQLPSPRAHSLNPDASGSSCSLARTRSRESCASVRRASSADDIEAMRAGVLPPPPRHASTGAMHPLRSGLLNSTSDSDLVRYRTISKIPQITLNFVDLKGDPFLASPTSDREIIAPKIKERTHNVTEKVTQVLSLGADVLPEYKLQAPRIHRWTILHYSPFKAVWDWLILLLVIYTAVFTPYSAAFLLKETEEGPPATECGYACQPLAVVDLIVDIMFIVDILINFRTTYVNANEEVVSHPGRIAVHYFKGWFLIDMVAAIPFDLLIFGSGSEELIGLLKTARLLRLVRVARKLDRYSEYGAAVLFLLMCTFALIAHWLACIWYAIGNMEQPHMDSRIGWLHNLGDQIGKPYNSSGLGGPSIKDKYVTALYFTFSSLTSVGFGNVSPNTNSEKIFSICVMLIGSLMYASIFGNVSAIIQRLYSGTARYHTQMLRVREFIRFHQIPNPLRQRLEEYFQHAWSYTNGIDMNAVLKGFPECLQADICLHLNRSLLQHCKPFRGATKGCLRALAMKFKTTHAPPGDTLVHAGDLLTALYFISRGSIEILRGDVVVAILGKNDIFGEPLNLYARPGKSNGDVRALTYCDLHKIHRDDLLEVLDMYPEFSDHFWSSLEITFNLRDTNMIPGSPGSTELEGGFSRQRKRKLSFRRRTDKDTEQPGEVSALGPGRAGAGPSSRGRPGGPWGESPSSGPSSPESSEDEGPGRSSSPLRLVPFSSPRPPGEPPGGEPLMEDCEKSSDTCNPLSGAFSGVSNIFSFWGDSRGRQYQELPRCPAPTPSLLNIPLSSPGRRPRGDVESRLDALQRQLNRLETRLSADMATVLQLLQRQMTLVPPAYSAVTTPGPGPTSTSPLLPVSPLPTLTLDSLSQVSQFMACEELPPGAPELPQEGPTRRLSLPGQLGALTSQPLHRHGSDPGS
particulars: hek293
measurement_label: IC50

Known IC50 results, listed for orientation:
molecule	IC50
O=C(Oc1ccccc1C(=O)O)c1ccccc1O [SALSALATE]	Not Active
CC(C)Cc1ccc([C@@H](C)C(=O)O)cc1 [(R)-IBUPROPHEN]	Not Active
N#Cc1ccc(C(c2ccc(C#N)cc2)n2cncn2)cc1	Not Active
O=C1Nc2ccc(Cl)cc2C(c2ccccc2Cl)=NC1O (stereo unspecified)	Not Active
C=CCc1ccc(O)c(OC)c1	Not Active

Quick batch: IC50 for everything below.
1. CCCN(CCC)S(=O)(=O)c1ccc(C(=O)O)cc1
2. CN(C)CC[C@@H](c1ccc(Cl)cc1)c1ccccn1
3. CC(=O)[C@H]1[C@H](C#N)C[C@H]2[C@@H]3CC=C4C[C@@H](O)CC[C@]4(C)[C@H]3CC[C@@]21C
4. Oc1cccc(O)c1O
5. CC(C)c1cccc(C(C)C)c1O
6. O=C(c1ccccc1C(F)(F)F)N1CCC(Cc2ccccc2)CC1

1: Not Active; 2: Not Active; 3: Not Active; 4: Not Active; 5: Not Active; 6: Not Active

====

tested_system: Substance-K receptor (Homo sapiens); further: in other assays of this panel Not Active means under 50% inhibition at 10 µM
Sequence (P21452 whole entry): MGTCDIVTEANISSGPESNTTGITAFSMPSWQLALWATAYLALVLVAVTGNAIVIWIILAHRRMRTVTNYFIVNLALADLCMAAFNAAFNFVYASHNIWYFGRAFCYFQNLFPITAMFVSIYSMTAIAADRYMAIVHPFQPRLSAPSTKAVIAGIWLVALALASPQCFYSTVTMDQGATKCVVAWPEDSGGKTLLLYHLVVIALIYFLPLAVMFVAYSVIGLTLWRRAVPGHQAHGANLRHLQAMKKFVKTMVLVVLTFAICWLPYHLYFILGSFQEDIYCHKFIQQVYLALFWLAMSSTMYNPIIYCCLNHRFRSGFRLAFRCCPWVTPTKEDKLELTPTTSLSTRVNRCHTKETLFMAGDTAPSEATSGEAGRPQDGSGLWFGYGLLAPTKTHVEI
Assay type: cell membranes, CHO, Membrane
particulars: cho
measurement_label: Ki

Known Ki results, listed for orientation:
substance	Ki
GENTAMICIN	Not Active
GADOPENTETATE DIMEGLUMINE	Not Active
NYSTATIN	Not Active
MANGANESE CHLORIDE ANHYDROUS	Not Active
AURANOFIN	Not Active

Below: the item to evaluate.
Provide only the value of recorded Ki for SODIUM ORTHOVANAD Not Active

====

tested_system: 5-hydroxytryptamine receptor 2B (Homo sapiens); further: in other assays of this panel Not Active means under 50% inhibition at 10 µM
Sequence (P41595 whole entry): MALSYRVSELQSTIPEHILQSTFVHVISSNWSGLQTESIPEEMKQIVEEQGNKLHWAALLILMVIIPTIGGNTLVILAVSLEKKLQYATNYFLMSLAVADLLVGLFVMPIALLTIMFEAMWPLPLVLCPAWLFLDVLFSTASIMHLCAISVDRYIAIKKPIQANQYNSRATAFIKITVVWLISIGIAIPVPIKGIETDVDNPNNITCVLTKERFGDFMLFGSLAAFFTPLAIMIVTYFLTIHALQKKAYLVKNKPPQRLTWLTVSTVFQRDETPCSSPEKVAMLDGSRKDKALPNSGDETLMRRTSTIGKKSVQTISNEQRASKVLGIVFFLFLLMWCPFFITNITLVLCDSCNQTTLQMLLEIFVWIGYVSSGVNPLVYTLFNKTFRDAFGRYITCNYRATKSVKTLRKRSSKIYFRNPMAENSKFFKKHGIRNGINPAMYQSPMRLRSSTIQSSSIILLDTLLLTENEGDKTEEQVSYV
Format: cell membranes, CHO-K1, Membrane
particulars: read-out: IC50
Please use yes for IC50 under 3000 nM and no for everything else, ties included.

compound	group_label
COc1ccc2cc3[n+](cc2c1OC)CCc1cc2c(cc1-3)OCO2.[Cl-] [BERBERINE CHLORIDE]	no
CC(C)c1cccc(C(C)C)c1O	no
O=C(c1ccccc1C(F)(F)F)N1CCC(Cc2ccccc2)CC1	yes
CN[C@H]1CC[C@@H](c2ccc(Cl)c(Cl)c2)c2ccccc21	no
Cc1cc2c(OCC(CNC(C)(C)C)OC(=O)c3ccccc3)cccc2[nH]1 (stereo not drawn)	yes

Next compound, please.
Hi there! Is IC50 for CO[C@@H]1[C@@H](OC)[C@H](C)[C@@](O)(CC(=O)O)O[C@H]1[C@H](C)[C@H]1O[C@@]2(CC[C@@](C)([C@H]3CC[C@@](C)([C@@H]4O[C@@H]([C@H]5O[C@](C)(O)[C@H](C)C[C@@H]5C)C[C@@H]4O[C@@H]4C[C@H](OC)[C@@H](OC)[C@H](C)O4)O3)O2)C[C@H](O)[C@H]1C below 3000 nM, do you know? yes

====

assay_method_text: DRUGMATRIX: Calcium Channel Type L, Dihydropyridine radioligand binding (ligand: [3H] Nitrendipine)
Format: cell membranes, Rattus norvegicus, Wistar, Cerebral cortex, Membrane
particulars: Not Active = under 50% inhibition at 10 µM
measurement_label: Ki

molecule	Ki
NC1CCN(c2nc3c(cc2F)c(=O)c(C(=O)O)cn3-c2ccc(F)cc2F)C1 (stereo not given) [TOSUFLOXACIN]	Not Active
CCn1cc(C(=O)O)c(=O)c2cnc(N3CCCC3)nc21 [PIROMIDIC ACID]	Not Active
CN(C)CC[C@@H](c1ccc(Cl)cc1)c1ccccn1 [DEXCHLORPHENIRAMINE]	Not Active
CCC(=O)O[C@]1(C(=O)CCl)[C@@H](C)C[C@H]2[C@@H]3CCC4=CC(=O)C=C[C@]4(C)[C@@]3(F)[C@@H](O)C[C@@]21C [CLOBETASOL PROPIONATE]	Not Active
CS(=O)(=O)c1ccc([C@@H](O)[C@@H](CO)NC(=O)C(Cl)Cl)cc1 [THIAMPHENICOL]	Not Active

Quick batch: Ki for everything below.
1. CC[C@H]1CN2CCc3cc(OC)c(OC)cc3[C@@H]2C[C@@H]1C[C@H]1NCCc2cc(OC)c(OC)cc21 [EMETINE]
2. CC(=O)Oc1ccc(C(c2ccc(OC(C)=O)cc2)c2ccccn2)cc1 [BISACODYL]
3. CC(C(=O)O)c1cccc(Oc2ccccc2)c1 (stereo not given) [FENOPROFEN]
4. NC(=O)N1C(=O)/C(=C(\O)c2cccs2)c2cc(Cl)ccc21 [TENIDAP]
5. O=C(N/N=C/c1ccc([N+](=O)[O-])o1)c1cc([N+](=O)[O-])cc([N+](=O)[O-])c1O [NIFURSOL]
6. Brc1c(NC2=NCCN2)ccc2nccnc12 [BRIMONIDINE]
7. CCN(CC)CCOCCC1=CCC2CC1C2(C)C (stereo not given) [MYRTECAINE]

1: Not Active; 2: Not Active; 3: Not Active; 4: Not Active; 5: Not Active; 6: Not Active; 7: Not Active

Quick batch: Ki for everything below.
1. O=C(O)c1cccnc1Nc1cccc(C(F)(F)F)c1 [NIFLUMIC ACID]
2. CC[C@@H](C(=O)[C@@H](C)[C@@H](O)[C@H](C)[C@@H]1O[C@@H]([C@@H](CC)C(=O)O)CC[C@@H]1C)[C@H]1O[C@]2(C=C[C@@H](O)[C@]3(CC[C@@](C)([C@H]4CC[C@](O)(CC)[C@H](C)O4)O3)O2)[C@H](C)C[C@@H]1C [SALINOMYCIN]
3. COc1c2occc2cc2ccc(=O)oc12 [METHOXSALEN]
4. Cc1c(OCC(F)(F)F)ccnc1C[S+]([O-])c1nc2ccccc2[nH]1 (stereo not given) [LANSOPRAZOLE]
5. CC(C)NCC(O)c1ccc(O)c(O)c1 (stereo not given) [ISOPROTERENOL]
6. CC(C)c1cccc(C(C)C)c1O [PROPOFOL]
7. Cc1cc2c(OCC(CNC(C)(C)C)OC(=O)c3ccccc3)cccc2[nH]1 (stereo not given) [BOPINDOLOL]

["Not Active", "Not Active", "Not Active", "Not Active", "Not Active", "Not Active", "Not Active"]
